System: Rattus norvegicus
Test: Antiinflammatory activity in po dosed albino rat assessed as inhibition of formalin-induced paw edema administered 1 hr prior to formalin challenge measured after 2 hrs by plethysmometric analysis
Format: functional
Reported ED50 values for the following compounds.
Dear colleague, please send the value followed by its unit.

# annotated cases, reported ED50 shown
Cc1sc2nc3[nH]c(CC(=O)Nc4ccccc4)nn3c(=O)c2c1C; 26.1 mg/kg
COc1ccc(NC(=O)Cc2nn3c(=O)c4c(C)c(C)sc4nc3[nH]2)cc1; 18.4 mg/kg

Q. Notebook: pull reported ED50 for Rattus norvegicus, entry `Cc1sc2nc3[nH]c(CC#N)nn3c(=O)c2c1C`
A. 29 mg/kg

Q. Notebook: pull reported ED50 for Rattus norvegicus, entry O=C([O-])Cc1ccccc1Nc1c(Cl)cccc1Cl.[Na+] [DICLOFENAC SODIUM]
A. 25.1 mg/kg
